Tested on: HL-60(TB) leukemia
EXPERIMENT_SUMMARY: NCI-60 one-dose screen, 48 h (100 = growth as untreated, 0 = no growth, -100 = all killed)
ASSAY_SETUP: 10 µM unless noted
This is part of a sample that, as a whole, favours compounds with a hit. Of some 83,000 tested, about 20% had one in any assay.

>  <COMPOUND>
Cn1ccc2c3c(ccc21)CC3=O

>  <ASSAYED_SYSTEM>
HL-60(TB) leukemia

>  <growth, %>
113

$$$$
>  <COMPOUND>
CCC(C)NCc1ccccc1 (stereo not given)

>  <ASSAYED_SYSTEM>
HL-60(TB) leukemia

>  <growth, %>
94.6

$$$$
>  <COMPOUND>
CC1CN(C2CCCCC2)C(=S)N(c2ccccc2)C1=O (stereo not given)

>  <ASSAYED_SYSTEM>
HL-60(TB) leukemia

>  <growth, %>
85

$$$$
>  <COMPOUND>
CCc1c(C)c2ccc(OCC(=O)N=Nc3c(O)[nH]c4ccccc34)c(C)c2oc1=O

>  <ASSAYED_SYSTEM>
HL-60(TB) leukemia

>  <growth, %>
-22.3

$$$$
>  <COMPOUND>
CCCC(CCC)NCC(O)c1cc(-c2ccc(C(F)(F)F)cc2)nc(C(F)(F)F)c1 (stereo not given)

>  <ASSAYED_SYSTEM>
HL-60(TB) leukemia

>  <growth, %>
-46.3

$$$$
>  <COMPOUND>
O=C(NNC(=S)Nc1ccccc1)c1ccccn1

>  <ASSAYED_SYSTEM>
HL-60(TB) leukemia

>  <growth, %>
-6.25

$$$$
>  <COMPOUND>
CC1(C)CC(=O)C2=C(C1)N(c1ccc(OC(F)(F)F)cc1)C(N)=C(C#N)C2c1ccc(Cl)cc1 (stereo not given)

>  <ASSAYED_SYSTEM>
HL-60(TB) leukemia

>  <growth, %>
102

$$$$
>  <COMPOUND>
O=C(O)CN1C(=O)c2cccc3cccc(c23)C1=O

>  <ASSAYED_SYSTEM>
HL-60(TB) leukemia

>  <growth, %>
118

$$$$
>  <COMPOUND>
O=C(/C=C/c1ccco1)Nc1ncc(Cc2ccc(F)cc2)s1

>  <ASSAYED_SYSTEM>
HL-60(TB) leukemia

>  <growth, %>
-41.6

$$$$
>  <COMPOUND>
O=C(c1c[nH]c2ccccc12)c1n[nH]c(=S)n1-c1cccc(Br)c1

>  <ASSAYED_SYSTEM>
HL-60(TB) leukemia

>  <growth, %>
88.8

$$$$
>  <COMPOUND>
Nc1cc(-c2ccc(Cl)cc2)nn1-c1nc(-c2ccc(Br)cc2)cs1

>  <ASSAYED_SYSTEM>
HL-60(TB) leukemia

>  <growth, %>
96.3

$$$$
>  <COMPOUND>
CCOC(=O)c1c(C)oc2ncnc(N3CCN(C(=O)COc4ccc(C(C)(C)C)cc4)CC3)c12

>  <ASSAYED_SYSTEM>
HL-60(TB) leukemia

>  <growth, %>
73.9

$$$$
>  <COMPOUND>
CC(=O)O[C@H]1C[C@H](O[C@H]2[C@@H](O)C[C@H](O[C@H]3[C@@H](O)C[C@H](O[C@H]4CC[C@@]5(C)C(CCC6C5C[C@@H](O)[C@]5(C)[C@@H](C7=CC(=O)OC7)CC[C@]65O)C4)O[C@@H]3C)O[C@@H]2C)O[C@H](C)[C@H]1O[C@@H]1O[C@H](CO)[C@@H](O)[C@H](O)[C@H]1O (stereo not given in full)

>  <ASSAYED_SYSTEM>
HL-60(TB) leukemia

>  <growth, %>
-46.4

$$$$
>  <COMPOUND>
COc1ccc(-c2noc(C(=O)O)c2-c2cc(OC)c(OC)c(OC)c2)cc1

>  <ASSAYED_SYSTEM>
HL-60(TB) leukemia

>  <growth, %>
-38.5

$$$$
>  <COMPOUND>
C/C(=C\C(=O)c1ccc(Cl)cc1)c1ccc(Cl)cc1

>  <ASSAYED_SYSTEM>
HL-60(TB) leukemia

>  <growth, %>
92.5

$$$$
>  <COMPOUND>
CC(C)(C)c1[nH]nc2c1C(c1cc3ccccc3[nH]c1=O)Nc1cc(C(=O)Nc3ccc(Cl)cc3)ccc1N2 (stereo not given)

>  <ASSAYED_SYSTEM>
HL-60(TB) leukemia

>  <growth, %>
55.9

$$$$
>  <COMPOUND>
COc1cccc(-c2nc3sccn3c2-c2ccnc(NCCNS(=O)(=O)c3c(Cl)cccc3Cl)c2)c1

>  <ASSAYED_SYSTEM>
HL-60(TB) leukemia

>  <growth, %>
25.9

$$$$
>  <COMPOUND>
CCC(C)CC(CC)NCCN1CCN(C(CC)CC(C)CC)C1=S (stereo not given)

>  <ASSAYED_SYSTEM>
HL-60(TB) leukemia

>  <growth, %>
39.8

$$$$
>  <COMPOUND>
Nc1nc(Cl)c2[nH]cnc2n1

>  <ASSAYED_SYSTEM>
HL-60(TB) leukemia

>  <growth, %>
89.5

$$$$
>  <COMPOUND>
C#C[C@@]1(O)[C@@H](CO)O[C@@H](n2cnc3c(-c4ccccc4)ncnc32)[C@@H]1O

>  <ASSAYED_SYSTEM>
HL-60(TB) leukemia

>  <growth, %>
102

$$$$

Data origin: PubChem BioAssay (NCI)
